Assayed target: human TLR8 (Homo sapiens (Human))
Sequence (Q9NR97 27-1041): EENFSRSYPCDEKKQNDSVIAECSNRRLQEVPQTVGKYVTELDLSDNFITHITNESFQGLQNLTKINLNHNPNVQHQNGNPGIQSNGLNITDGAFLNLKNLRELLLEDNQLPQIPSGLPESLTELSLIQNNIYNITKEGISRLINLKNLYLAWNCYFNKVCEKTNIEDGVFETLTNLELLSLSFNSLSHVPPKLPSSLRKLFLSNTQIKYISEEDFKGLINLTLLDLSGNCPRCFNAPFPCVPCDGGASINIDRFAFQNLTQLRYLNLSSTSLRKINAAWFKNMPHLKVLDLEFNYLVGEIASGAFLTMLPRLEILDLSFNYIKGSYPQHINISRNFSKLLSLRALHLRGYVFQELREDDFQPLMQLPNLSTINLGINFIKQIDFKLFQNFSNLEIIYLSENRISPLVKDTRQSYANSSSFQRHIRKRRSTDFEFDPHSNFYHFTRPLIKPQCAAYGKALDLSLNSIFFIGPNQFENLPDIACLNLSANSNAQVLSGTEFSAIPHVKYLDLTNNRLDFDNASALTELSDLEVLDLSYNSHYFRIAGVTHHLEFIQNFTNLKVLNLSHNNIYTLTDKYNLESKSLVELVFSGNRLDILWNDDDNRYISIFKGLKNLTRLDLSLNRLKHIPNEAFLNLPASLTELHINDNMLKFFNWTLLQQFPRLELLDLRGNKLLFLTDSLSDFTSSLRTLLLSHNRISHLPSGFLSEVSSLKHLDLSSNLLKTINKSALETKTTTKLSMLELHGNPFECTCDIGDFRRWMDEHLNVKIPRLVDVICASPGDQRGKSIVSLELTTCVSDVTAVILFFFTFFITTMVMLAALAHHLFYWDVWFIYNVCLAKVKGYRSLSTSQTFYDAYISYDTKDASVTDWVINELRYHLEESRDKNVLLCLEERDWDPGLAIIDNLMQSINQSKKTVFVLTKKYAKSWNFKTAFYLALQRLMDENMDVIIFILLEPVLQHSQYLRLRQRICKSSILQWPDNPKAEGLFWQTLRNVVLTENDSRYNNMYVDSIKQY
Test: TLR8 inhibition reporter assay (HEK-Blue SEAP);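 further: SEAP driven by IFN-β minimal promoter carrying NF-κB and AP-1 sites, compounds dosed 0.05 nM to 50 µM for 22 h, inhibition scaled between agonist-plus-DMSO and reference-inhibitor wells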
Measurement setup: read-out: TLR8 IC50; HEK-Blue cells overexpressing human TLR8, R848 15.9 μM stimulation, SEAP reporter
Below, each entry is listed with its recorded pIC50.
Scale: pIC50 equals -log10([C]), with [C] in mol/L.

COCc1cc(-c2[nH]c3ccc(C4CCC(NCC(=O)N(C)C)CC4)nc3c2C(C)C)cn2ncnc12 (centres unmarked) [Example 213] : 7.77
CNC1CCC(c2ccc3[nH]c(-c4cn(C)c5ncncc45)c(C(C)C)c3n2)CC1 (centres unmarked) [Example 296] : 8.17
COc1cc(-c2[nH]c3ccc(C4CCC(N(C)Cc5cnc(C)cn5)CC4)nc3c2C(C)C)cn2ncnc12 (centres unmarked) [Example 203] : 8.10
COc1cc(-c2[nH]c3cc(C)c(C4CCC(N(C)Cc5ncn(C)n5)CC4)nc3c2C(C)C)cn2ncnc12 (centres unmarked) [Example 333] : 7.92
Cc1c(-c2[nH]c3ccc(C4CCC(NCC(=O)N(C)C)CC4)nc3c2C(C)C)cn2ncnc2c1C (centres unmarked) [Example 354] : 8.64
COc1cc(-c2[nH]c3ccc(C4CCC(NCC(=O)N(C)C)CC4)nc3c2C(C)C)cn2ncnc12 (centres unmarked) [Example 232] : 8.01
CC(C)c1c(-c2cn(CCS(C)(=O)=O)c3ncccc23)[nH]c2ccc(C3CCC(NCC(=O)N(C)C)CC3)nc12 (centres unmarked) [Example 261] : 7.05
CNC1CCC(c2ccc3[nH]c(-c4cn(C)c5ncccc45)c(C(C)C)c3n2)CC1 (centres unmarked) : 8.31

Q: Could you tell me which pIC50 is on file for Cc1c(-c2[nH]c3ccc(N4CCN(C(=O)CN5CCC(O)CC5)CC4)nc3c2C(C)C)cn2ncnc2c1C ?
Ans: 8.92

Q: Could you tell me which pIC50 is on file for CC(C)c1c(-c2cn(CC#N)c3ncccc23)[nH]c2ccc(C3CCC(NCC(=O)N(C)C)CC3)nc12 (centres unmarked) [Example 272] ?
Ans: 7.30

Q: Could you tell me which pIC50 is on file for Cc1c(-c2[nH]c3ccc(N4CCCN(CC(=O)N(C)C)CC4)nc3c2C(C)C)cn2ncnc2c1C ?
Ans: 8.30

* * *

Assayed target: UniProtKB Q9NYK1
Test: TLR7 inhibition reporter assay (HEK-Blue SEAP)
Assay type: cell-based
Measurement setup: HEK-Blue cells overexpressing human TLR7, SEAP reporter, gardiquimod 7.5 μM
Below, each entry is listed with its recorded pIC50.
Scale: pIC50 equals -log10([C]), with [C] in mol/L.

Solved cases (3 shown):
Cc1c(-c2[nH]c3cc(F)c(C4CCC(N)CC4)nc3c2C(C)C)cn2ncnc2c1C (stereo not drawn) [Example 507] : 8.96
Cc1c(-c2[nH]c3ccc(C4CCC(N(CCO)CCS(C)(=O)=O)CC4)nc3c2C(C)C)cn2ncnc2c1C (stereo not drawn) [Example 461] : 8.59
Cc1cc(-c2[nH]c3ccc(C4CCNCC4)nc3c2C(C)C)cn(C)c1=O [Example 515] : 8.10

Q: Could you tell me which pIC50 is on file for Cc1c(-c2[nH]c3ccc(C4CCN(CCS(C)(=O)=O)CC4)nc3c2C(C)C)cn2ncnc2c1C [Example 556] ?
Ans: 8.77

* * *

Assayed target: human TLR7 (Homo sapiens (Human))
Sequence (Q9NYK1 27-1049): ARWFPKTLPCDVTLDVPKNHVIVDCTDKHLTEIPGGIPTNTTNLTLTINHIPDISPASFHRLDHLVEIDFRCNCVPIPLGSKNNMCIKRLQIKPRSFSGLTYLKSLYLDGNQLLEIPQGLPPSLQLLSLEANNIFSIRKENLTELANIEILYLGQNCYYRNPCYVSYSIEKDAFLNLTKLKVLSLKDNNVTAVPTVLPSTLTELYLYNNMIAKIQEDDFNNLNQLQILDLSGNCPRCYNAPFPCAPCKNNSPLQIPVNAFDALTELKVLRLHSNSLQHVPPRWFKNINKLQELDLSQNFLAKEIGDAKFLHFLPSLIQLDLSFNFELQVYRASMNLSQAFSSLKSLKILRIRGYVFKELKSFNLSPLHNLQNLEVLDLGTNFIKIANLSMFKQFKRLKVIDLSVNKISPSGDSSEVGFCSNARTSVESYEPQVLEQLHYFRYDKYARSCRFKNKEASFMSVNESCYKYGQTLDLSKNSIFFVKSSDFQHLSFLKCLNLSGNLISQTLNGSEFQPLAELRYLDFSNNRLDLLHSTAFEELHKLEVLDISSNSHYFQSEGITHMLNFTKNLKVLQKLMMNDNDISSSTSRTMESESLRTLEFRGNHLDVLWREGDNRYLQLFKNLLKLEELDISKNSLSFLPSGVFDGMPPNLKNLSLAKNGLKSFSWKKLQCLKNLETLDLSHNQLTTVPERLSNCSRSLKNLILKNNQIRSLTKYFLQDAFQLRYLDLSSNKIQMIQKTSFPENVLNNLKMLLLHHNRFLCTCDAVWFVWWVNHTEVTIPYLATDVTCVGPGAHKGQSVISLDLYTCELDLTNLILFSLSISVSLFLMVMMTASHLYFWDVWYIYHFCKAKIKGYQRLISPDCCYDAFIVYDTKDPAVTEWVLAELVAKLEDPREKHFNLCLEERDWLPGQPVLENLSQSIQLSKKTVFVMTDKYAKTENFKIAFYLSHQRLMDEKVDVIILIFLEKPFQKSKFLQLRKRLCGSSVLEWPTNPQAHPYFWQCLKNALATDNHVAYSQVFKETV
Test: TLR7 inhibition reporter assay (HEK-Blue SEAP)
Format: cell-based
Measurement setup: HEK-Blue cells overexpressing human TLR7, SEAP reporter, gardiquimod 7.5 μM
Below, each entry is listed with its recorded pIC50.
Scale: pIC50 equals -log10([C]), with [C] in mol/L.

Solved cases (3 shown):
Cc1c(-c2[nH]c3ccc(C4CCC(NCC5CCCCS5(=O)=O)CC4)nc3c2C(C)C)cn2ncnc2c1C (centres unmarked) [Example 464] : 9.17
COc1cc(-c2[nH]c3cc(F)c(C4CCN(CC(=O)N(C)C)CC4)nc3c2C(C)C)cn2ncnc12 : 9.49
Cc1c(-c2[nH]c3ccc(C4CCN(C(=O)CN(C)C)CC4)nc3c2C(C)C)cn(C)c(=O)c1Cl : 8.00

Q: Could you tell me which pIC50 is on file for Cc1cc2[nH]c(-c3cn4ncnc4c(C)c3C)c(C(C)C)c2nc1C1CCC(NC2COC2)CC1 (centres unmarked) [Example 502] ?
Ans: 9.10

Q: Could you tell me which pIC50 is on file for Cc1c(-c2[nH]c3cc(F)c(C4CCC(NC5CCOCC5)CC4)nc3c2C(C)C)cn2ncnc2c1C (centres unmarked) [Example 505] ?
Ans: 8.46

Q: Could you tell me which pIC50 is on file for CC(C)c1c(-c2cn(C)c3ncccc23)[nH]c2ccc(CCC3CN(CC4(C)COC4)C3)nc12 ?
Ans: 7.96

Q: Could you tell me which pIC50 is on file for CNC(=O)CNC1CC(c2ccc3[nH]c(-c4cn5ncnc5c(C)c4C)c(C(C)C)c3n2)C1 (centres unmarked) ?
Ans: 8.40

Q: Could you tell me which pIC50 is on file for Cc1c(-c2[nH]c3ccc(C4CCC5(CC4)CN(C(C)C)C5)nc3c2C(C)C)cn2ncnc2c1C ?
Ans: 5.76

Q: Could you tell me which pIC50 is on file for Cc1c(-c2[nH]c3ccc(C4CC(NCCS(C)(=O)=O)C4)nc3c2C(C)C)cn2ncnc2c1C (centres unmarked) ?
Ans: 8.52

Q: Could you tell me which pIC50 is on file for Cc1c(-c2[nH]c3ccc(C4CCC(NCC(C)(C)S(C)(=O)=O)CC4)nc3c2C(C)C)cn2ncnc2c1C (centres unmarked) [Example 454] ?
Ans: 8.92

Q: Could you tell me which pIC50 is on file for Cc1c(-c2[nH]c3ccc(C4CCC(N(C)CC5(S(C)(=O)=O)CC5)CC4)nc3c2C(C)C)cn2ncnc2c1C (centres unmarked) [Example 476] ?
Ans: 9.09

Q: Could you tell me which pIC50 is on file for CC(C)c1c(-c2cn(C)c3ncccc23)[nH]c2ccc(CCC3CN(CC(=O)N(C)C)C3)nc12 ?
Ans: 7.92

Q: Could you tell me which pIC50 is on file for CCN(CCS(C)(=O)=O)C1CCC(c2nc3c(C(C)C)c(-c4cn5ncnc5c(C)c4C)[nH]c3cc2F)CC1 (centres unmarked) [Example 511] ?
Ans: 8.24

Q: Could you tell me which pIC50 is on file for COc1cc(-c2[nH]c3ccc(C4CCN(CCS(C)(=O)=O)CC4)nc3c2C(C)C)cn2ncnc12 ?
Ans: 8.82

Q: Could you tell me which pIC50 is on file for Cc1c(-c2[nH]c3ccc(C4CCC(NCc5c[nH]nn5)CC4)nc3c2C(C)C)cn2ncnc2c1C (centres unmarked) ?
Ans: 8.66

Q: Could you tell me which pIC50 is on file for Cc1cc2[nH]c(-c3cc(C)c4ncnn4c3)c(C(C)C)c2nc1C1CCN(C2CCOCC2)CC1 ?
Ans: 9.36

Q: Could you tell me which pIC50 is on file for COc1cc(-c2[nH]c3ccc(C4CCC(NCC5(C)COC5)C4)nc3c2C(C)C)cn2ncnc12 (centres unmarked) [Example 711] ?
Ans: 8.70

* * *

Assayed target: human TLR9 (Homo sapiens (Human), UniProt Q9NR96)
Sequence (Q9NR96 26-1032): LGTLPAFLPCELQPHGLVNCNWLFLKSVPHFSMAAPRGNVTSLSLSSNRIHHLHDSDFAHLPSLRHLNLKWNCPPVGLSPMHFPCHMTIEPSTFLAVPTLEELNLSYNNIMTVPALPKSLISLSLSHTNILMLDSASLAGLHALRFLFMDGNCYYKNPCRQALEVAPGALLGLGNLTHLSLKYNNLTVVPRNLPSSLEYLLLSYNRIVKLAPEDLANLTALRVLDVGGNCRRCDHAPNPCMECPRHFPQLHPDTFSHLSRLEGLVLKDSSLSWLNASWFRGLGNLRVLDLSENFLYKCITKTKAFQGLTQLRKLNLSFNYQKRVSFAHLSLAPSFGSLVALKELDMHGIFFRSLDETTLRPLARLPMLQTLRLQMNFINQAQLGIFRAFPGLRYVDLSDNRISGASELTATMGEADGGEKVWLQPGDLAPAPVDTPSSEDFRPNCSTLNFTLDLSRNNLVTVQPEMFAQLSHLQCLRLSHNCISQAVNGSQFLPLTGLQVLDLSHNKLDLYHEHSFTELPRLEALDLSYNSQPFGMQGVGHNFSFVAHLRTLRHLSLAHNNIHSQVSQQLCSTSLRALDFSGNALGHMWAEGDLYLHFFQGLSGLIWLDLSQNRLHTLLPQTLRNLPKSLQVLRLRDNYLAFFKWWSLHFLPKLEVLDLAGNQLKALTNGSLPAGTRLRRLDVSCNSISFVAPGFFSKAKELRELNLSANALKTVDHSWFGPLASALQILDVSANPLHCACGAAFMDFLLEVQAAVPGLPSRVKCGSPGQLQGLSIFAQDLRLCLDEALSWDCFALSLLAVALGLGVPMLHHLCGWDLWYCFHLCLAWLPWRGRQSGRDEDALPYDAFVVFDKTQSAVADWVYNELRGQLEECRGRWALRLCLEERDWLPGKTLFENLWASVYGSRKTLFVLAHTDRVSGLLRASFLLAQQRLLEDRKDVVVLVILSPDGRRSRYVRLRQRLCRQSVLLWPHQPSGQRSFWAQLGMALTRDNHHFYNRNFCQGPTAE
Test: TLR9 inhibition reporter assay (HEK-Blue SEAP)
Measurement setup: read-out: TLR9 IC50; HEK-Blue cells overexpressing human TLR9, SEAP reporter, ODN2006 5 nM
Quantity measured: pIC50
Scale: pIC50 equals -log10([C]), with [C] in mol/L.

Solved cases (5 shown):
Cc1cc(-c2[nH]c3ccc(C4CCN(CC(C)(C)O)CC4)nc3c2C(C)C)cn2ncnc12 [Example 547] : 6.10
COc1cc(-c2[nH]c3ccc(OC4CN(C(C)C)C4)nc3c2C(C)C)cn2ncnc12 [Example 612] : 5.41
COc1cc(-c2[nH]c3ccc(C4CCC(N(CC(N)=O)CC(N)=O)C4)nc3c2C(C)C)cn2ncnc12 (stereo not shown) [Example 720] : 4.69
COc1cc(-c2[nH]c3ccc(C4CCC(N(CC(=O)N(C)C)CC(=O)N(C)C)C4)nc3c2C(C)C)cn2ncnc12 (stereo not shown) [Example 722] : 4.73
CCN(CC(=O)N(C)C)C1CCC(c2ccc3[nH]c(-c4cn5ncnc5c(C)c4C)c(C(C)C)c3n2)CC1 (stereo not shown) [Example 462] : 5.34

Could you now look at the following molecule, please?
Q: Could you tell me which pIC50 is on file for COc1cc(-c2[nH]c3ccc(C4CC(N(C)C(=O)CN(C)C)C4)nc3c2C(C)C)cn2ncnc12 (stereo not shown) [Example 625] ?
Ans: 6.01

* * *

Below, each entry is listed with its recorded IC50.
Assayed target: human TLR9 (Homo sapiens (Human), UniProt Q9NR96)
Test: TLR9 inhibition reporter assay (HEK-Blue SEAP)
Measurement setup: read-out: TLR9 IC50; HEK-Blue cells overexpressing human TLR9, ODN2006 5 nM stimulation, SEAP reporter
The answer consists of two parts: a number and, after it, its unit.

COc1cc(-c2[nH]c3ccc(N4CC(N(C)C)C4)nc3c2C(C)C)cn2ncnc12 : 5020 nM

Q: Could you tell me which IC50 is on file for CNC1CCC(c2ccc3[nH]c(-c4cn(CCO)c5ncccc45)c(C(C)C)c3n2)CC1 (stereo not drawn) [Example 299] ?
Ans: 680 nM

Q: Could you tell me which IC50 is on file for COc1ncnc(OC)c1CNC1CCN(c2ccc3[nH]c(-c4cn5ncnc5c(C)c4C)c(C(C)C)c3n2)CC1 ?
Ans: 25800 nM

Q: Could you tell me which IC50 is on file for Cc1cnc(CNC2CCC(c3ccc4[nH]c(-c5cn(C)c6ncccc56)c(C(C)C)c4n3)CC2)cn1 (stereo not drawn) [Example 205] ?
Ans: 134 nM
